Value source: ChEMBL document CHEMBL4043297

test: Cmax in CD1 mouse at 10.757 mg/kg administered via oral gavage by LC-MS/MS method; format: ADME, organism-based; parameters: dose 10.757 mg/kg, route oral; settings: in vivo, 10.76 mg/kg

| molecular string | unit label | Cmax |
| --- | --- | --- |
| Cc1[nH]c(C)c(-c2ccc(-c3ccc(OC(F)(F)F)cc3)nc2)c(=O)c1Cl | ng/mL | 2290 |

* * *

test: AUC (0 to t) in CD1 mouse at 4.42 mg/kg administered via oral gavage by LC-MS/MS method; type: ADME, organism-based; conditions: in vivo

| molecular string | AUC(0-t) |
| --- | --- |
| Cc1[nH]c(C)c(-c2ccc(-c3ccc(C(F)(F)F)cc3)nc2)c(=O)c1Cl | 101 µg·h/mL |
